Data provenance is PubChem BioAssay AID1845206.

tested on: NCI-H1618 multicellular tumor spheroid viability; assay: Anticancer human tumor NCI-H1618 cell line growth inhibition; settings: curve of first compound; second compound 0.000949 µM;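 also: spheroids exposed to agents for 7 days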
Kindly supply the reported IC50 values for the records listed here.

Incoming: What is its IC50 for NCI-H1618 multicellular tumor spheroid viability? Entry: CC1COCCN1c1cc(-c2ccnn2C)c2ccnc(-c3ccn[nH]3)c2n1 (stereo unspecified) + COc1cc2c(cc1O)CCNC21CSC2c3c(OC(C)=O)c(C)c4c(c3C(COC1=O)N1C(O)C3Cc5cc(C)c(OC)c(O)c5C(C21)N3C)OCO4
Outgoing: < 31.6 nM

Incoming: What is its IC50 for NCI-H1618 multicellular tumor spheroid viability? Entry: COc1ccc([C@@H](O)c2cc(-c3ncnc4cc(N5CCOCC5)ccc34)c(F)cc2Cl)nn1 + COc1cc2c(cc1O)CCNC21CSC2c3c(OC(C)=O)c(C)c4c(c3C(COC1=O)N1C(O)C3Cc5cc(C)c(OC)c(O)c5C(C21)N3C)OCO4
Outgoing: < 31.6 nM

Incoming: What is its IC50 for NCI-H1618 multicellular tumor spheroid viability? Entry: [2H]c1nc(C)nc([2H])c1-c1cc(NC[C@@H](C)c2cccc3c(C(=O)NC)ccnc23)ncn1 + COc1cc2c(cc1O)CCNC21CSC2c3c(OC(C)=O)c(C)c4c(c3C(COC1=O)N1C(O)C3Cc5cc(C)c(OC)c(O)c5C(C21)N3C)OCO4
Outgoing: < 31.6 nM

Incoming: What is its IC50 for NCI-H1618 multicellular tumor spheroid viability? Entry: O=C(c1cc(Cc2n[nH]c(=O)c3ccccc23)ccc1F)N1CCN(C(=O)C2CC2)CC1 + COc1cc2c(cc1O)CCNC21CSC2c3c(OC(C)=O)c(C)c4c(c3C(COC1=O)N1C(O)C3Cc5cc(C)c(OC)c(O)c5C(C21)N3C)OCO4
Outgoing: < 94.9 nM

Incoming: What is its IC50 for NCI-H1618 multicellular tumor spheroid viability? Entry: CC(C)n1c(=O)n(C)c2cnc3cc(F)c(-c4ccc(OCCCN5CCCCC5)nc4)cc3c21 + COc1cc2c(cc1O)CCNC21CSC2c3c(OC(C)=O)c(C)c4c(c3C(COC1=O)N1C(O)C3Cc5cc(C)c(OC)c(O)c5C(C21)N3C)OCO4
Outgoing: < 31.6 nM

Incoming: What is its IC50 for NCI-H1618 multicellular tumor spheroid viability? Entry: COc1cc(C)[nH]c(=O)c1CN1CCc2c(Cl)cc(C(OC)C3COC3)c(Cl)c2C1=O (stereo unspecified) + COc1cc2c(cc1O)CCNC21CSC2c3c(OC(C)=O)c(C)c4c(c3C(COC1=O)N1C(O)C3Cc5cc(C)c(OC)c(O)c5C(C21)N3C)OCO4
Outgoing: < 31.6 nM
